# ASSAY_DETAILS: in vivo
# SETUP_CONDITIONS: male, SD, rat, po, 30 mg/kg
Structures can show the parent of a compound that is named as a salt.
The reader will find reported bioavailability values listed item by item below.
PROPERTY_NAME: bioavailability (%)

| MOLECULE | UNIT_INFO | NUMERIC_VALUE |
| --- | --- | --- |
| Cc1n[nH]c2nc(-c3ccc(NS(=O)(=O)c4cc(F)ccc4F)c(Cl)c3)nc(O[C@@H]3CCNC[C@@H]3F)c12 [Compound 156, hydrochloride] | % | 12 |
| Cc1n[nH]c2nc(-c3ccc(NS(=O)(=O)c4cc(Cl)ccc4F)cc3)nc(O[C@@H]3CCNC[C@@H]3F)c12 | % | 0.45 |
| Cc1n[nH]c2nc(-c3ccc(NS(=O)(=O)c4cc(F)ccc4F)c(Cl)c3)nc(NCCN(C)C)c12 | % | 92 |
| COc1cc(-c2nc(NCCN(C)C)c3c(C)n[nH]c3n2)ccc1NS(=O)(=O)c1cc(F)ccc1F | % | 24 |
| Cc1n[nH]c2nc(-c3ccc(NS(=O)(=O)c4cc(OC(C)C)ccn4)c(Cl)c3)nc(NCCN(C)C)c12 | % | 39.5 |
| Cc1n[nH]c2nc(-c3ccc(NS(=O)(=O)c4cc(Cl)ccc4F)c(F)c3)nc(OC3CCN(C)CC3)c12 | % | 40.5 |
| Cc1n[nH]c2nc(-c3ccc(NS(=O)(=O)c4cc(Cl)ccc4F)cc3)nc(OCCN(C)CCO)c12 | % | 6.7 |

###

# SYSTEM: CYP2D6 (Homo sapiens (Human), UniProt P10635)
# Sequence (P10635 whole entry): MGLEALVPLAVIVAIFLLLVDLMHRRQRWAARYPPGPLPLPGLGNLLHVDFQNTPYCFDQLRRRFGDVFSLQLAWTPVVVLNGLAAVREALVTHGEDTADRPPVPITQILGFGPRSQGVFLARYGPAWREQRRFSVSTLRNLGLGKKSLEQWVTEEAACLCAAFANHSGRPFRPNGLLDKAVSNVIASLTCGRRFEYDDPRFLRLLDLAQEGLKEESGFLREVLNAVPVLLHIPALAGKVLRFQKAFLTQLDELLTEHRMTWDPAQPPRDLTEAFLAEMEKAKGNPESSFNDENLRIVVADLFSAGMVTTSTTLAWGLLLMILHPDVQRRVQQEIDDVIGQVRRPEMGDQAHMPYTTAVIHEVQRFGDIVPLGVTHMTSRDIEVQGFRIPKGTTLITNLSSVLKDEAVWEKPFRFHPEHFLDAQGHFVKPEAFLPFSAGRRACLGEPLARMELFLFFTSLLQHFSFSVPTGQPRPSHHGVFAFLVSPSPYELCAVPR
# ASSAY_DETAILS: in vitro
# SETUP_CONDITIONS: microsomes
# if value of inhibition at 20 min, 10 µM reaches 7%, tag 1.0; if it stays below, tag 0.0

| SMILES_CODE | GROUP_LABEL |
| --- | --- |
| Cc1n[nH]c2nc(-c3ccc(NS(=O)(=O)c4cc(F)ccc4F)c(F)c3)nc(NCCN(C)C)c12 | 0.0 |
| Cc1n[nH]c2nc(-c3ccc(NS(=O)(=O)c4cc(Cl)ccc4F)cc3)nc(O[C@@H]3CCNC[C@@H]3F)c12 | 1.0 |
| Cc1n[nH]c2nc(-c3ccc(NS(=O)(=O)N4CCCC4)cc3)nc(OC3CCN(C(C)C)CC3)c12 | 1.0 |
| Cc1n[nH]c2nc(-c3ccc(NS(=O)(=O)c4cc(F)ccc4F)c(Cl)c3)nc(NCCN(C)C)c12 | 0.0 |
| Cc1n[nH]c2nc(-c3ccc(NS(=O)(=O)c4cc(C(F)(F)F)ccn4)cc3)nc(O[C@@H]3CCN(C)C[C@@H]3F)c12 | 1.0 |
| Cc1n[nH]c2nc(-c3ccc(NS(=O)(=O)c4cc(Cl)ccc4F)cc3)nc(O[C@@H]3CCNCC3(F)F)c12 | 1.0 |

###

# SYSTEM: CYP2C9 (Homo sapiens (Human), UniProt P11712)
# Sequence (P11712 whole entry): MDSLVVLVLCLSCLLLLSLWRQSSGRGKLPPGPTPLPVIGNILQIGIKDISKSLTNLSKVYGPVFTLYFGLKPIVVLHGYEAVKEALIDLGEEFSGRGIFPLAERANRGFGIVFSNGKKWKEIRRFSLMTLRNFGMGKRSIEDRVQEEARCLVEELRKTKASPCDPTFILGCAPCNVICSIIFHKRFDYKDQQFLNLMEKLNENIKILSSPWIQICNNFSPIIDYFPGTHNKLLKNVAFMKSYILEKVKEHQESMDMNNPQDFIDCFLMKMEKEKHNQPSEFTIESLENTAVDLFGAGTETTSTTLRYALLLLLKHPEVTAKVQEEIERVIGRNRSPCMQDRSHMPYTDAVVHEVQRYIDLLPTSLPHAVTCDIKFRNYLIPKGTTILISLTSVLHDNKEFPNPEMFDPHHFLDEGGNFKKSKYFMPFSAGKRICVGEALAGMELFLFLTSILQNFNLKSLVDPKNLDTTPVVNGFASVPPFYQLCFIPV
# ASSAY_DETAILS: in vitro
# SETUP_CONDITIONS: microsomes

| MOLECULE | UNIT_INFO | inhibition at 20 min, 10 µM |
| --- | --- | --- |
| Cc1n[nH]c2nc(-c3ccc(NS(=O)(=O)N4CCCC4)cc3)nc(OC3CCN(C(C)C)CC3)c12 [Compound 2] | % | 13 |
| Cc1n[nH]c2nc(-c3ccc(NS(=O)(=O)c4cc(F)ccc4F)c(F)c3)nc(NCCN(C)C)c12 [Compound 84] | % | 2.2 |
| Cc1n[nH]c2nc(-c3ccc(NS(=O)(=O)c4cc(Cl)ccc4F)cc3)nc(O[C@@H]3CCNCC3(F)F)c12 [Compound 44] | % | 92 |
| Cc1n[nH]c2nc(-c3ccc(NS(=O)(=O)c4cc(C(F)(F)F)ccn4)cc3)nc(O[C@@H]3CCN(C)C[C@@H]3F)c12 [Compound 63] | % | 65 |
| Cc1n[nH]c2nc(-c3ccc(NS(=O)(=O)c4cc(Cl)ccc4F)cc3)nc(O[C@@H]3CCNC[C@@H]3F)c12 [Compound 29] | % | 75 |
| Cc1n[nH]c2nc(-c3ccc(NS(=O)(=O)c4cc(F)ccc4F)c(Cl)c3)nc(NCCN(C)C)c12 [Compound 85] | % | 9.4 |
